Below is a list of entries, each paired with its recorded % inhib. compared to control group, spleen value.
# Experiment: Spleen weight and body weight gain in the Sephadex lung edema test (systemic glucocorticoid action)
# Assay type: in vivo, Sprague Dawley rats
# Condition Summary: 335 nmol/kg instilled in left lung lobe; spleen weight, 20 h after Sephadex; NS = not significant
Your answer should be a plain number; it is taken to be in %.

The following compounds have reported results that may help.
CCCCCCCCCCCCCCCC(=O)OCC(=O)[C@@]1(OC(=O)CC)[C@H](C)C[C@H]2[C@@H]3CCC4=CC(=O)C=C[C@]4(C)[C@@]3(F)[C@@H](O)C[C@@]21C [Dexamethasone-21-palmitate-17-propionate] = 3
CCCCC(=O)OCC(=O)[C@@]12OC(CCC)O[C@@H]1C[C@H]1[C@@H]3CCC4=CC(=O)C=C[C@]4(C)[C@H]3[C@@H](O)C[C@@]12C (stereo partly shown) [Budesonide-21-valerate] = -1

Q) Suppose we examine the compound CCCCCCCCCCCCCCCC(=O)OCC(=O)[C@@]12OC(CCC)O[C@@H]1C[C@H]1[C@@H]3CCC4=CC(=O)C=C[C@]4(C)[C@H]3[C@@H](O)C[C@@]12C (stereo partly shown) [Budesonide-21-palmitate] ; what % inhib. compared to control group, spleen value has been reported?
A) 4

Q) Suppose we examine the compound CCCCCCCCCCCCCCCC(=O)OCC(=O)[C@@]1(O)[C@@H](C)C[C@H]2[C@@H]3CCC4=CC(=O)C=C[C@]4(C)[C@@]3(F)[C@@H](O)C[C@@]21C [Betamethasone-21-palmitate] ; what % inhib. compared to control group, spleen value has been reported?
A) 7

---

Below is a list of entries, each paired with its recorded Body weight gain in rel. to control value.
# Experiment: Spleen weight and body weight gain in the Sephadex lung edema test (systemic glucocorticoid action)
# Type: in vivo, Sprague Dawley rats
# Design: unit not given here
# Condition Summary: 335 nmol/kg instilled in left lung lobe; over 20 h; NS = not significant
Returns: the value as a bare number; no unit string appended.

The following compounds have reported results that may help.
CCCCC(=O)OCC(=O)[C@@]12OC(CCC)O[C@@H]1C[C@H]1[C@@H]3CCC4=CC(=O)C=C[C@]4(C)[C@H]3[C@@H](O)C[C@@]12C (stereo partly shown) [Budesonide-21-valerate] = -0.8
CCCCCCCCCCCCCCCC(=O)OCC(=O)[C@@]1(O)[C@H](C)C[C@H]2[C@@H]3CCC4=CC(=O)C=C[C@]4(C)[C@@]3(F)[C@@H](O)C[C@@]21C [Dexamethasone-21-palmitate] = -10.8
CCCCCCCCCCCCCCCC(=O)OCC(=O)[C@@]1(OC(=O)CC)[C@H](C)C[C@H]2[C@@H]3CCC4=CC(=O)C=C[C@]4(C)[C@@]3(F)[C@@H](O)C[C@@]21C [Dexamethasone-21-palmitate-17-propionate] = 1.0
CCCC1O[C@@H]2C[C@H]3[C@@H]4CCC5=CC(=O)C=C[C@]5(C)[C@H]4[C@@H](O)C[C@]3(C)[C@]2(C(=O)CO)O1 (stereo partly shown) [Budesonide] = 1.6
CCCCCCCCCCCCCCCC(=O)OCC(=O)[C@@]1(O)CC[C@H]2[C@@H]3CCC4=CC(=O)CC[C@]4(C)[C@H]3[C@@H](O)C[C@@]21C [Hydrocortisone-21-palmitate] = -1
CCCCCCCCCCCCCCCC(=O)OCC(=O)[C@@]12OC(CCC)O[C@@H]1C[C@H]1[C@@H]3CCC4=CC(=O)C=C[C@]4(C)[C@H]3[C@@H](O)C[C@@]12C (stereo partly shown) [Budesonide-21-palmitate] = -1.4

Now for another entry.
Q) Suppose we examine the compound CCCCCCCCCCCCCCCC(=O)OCC(=O)[C@@]1(O)[C@@H](C)C[C@H]2[C@@H]3CCC4=CC(=O)C=C[C@]4(C)[C@@]3(F)[C@@H](O)C[C@@]21C [Betamethasone-21-palmitate] ; what Body weight gain in rel. to control value has been reported?
A) 0.2
